Cited source for all entries: ChEMBL document CHEMBL4732096

tested on: MDA-MB-231; experiment: Antiproliferative activity against human MDA-MB-231 cells assessed as inhibition of cell growth at 10 uM measured after 72 hrs by MTT assay relative to control; assay type: functional
Experimental Endpoint: inhibition at 10 µM (%)
Field format: number, assumed %, no unit text.

Some solved cases for reference:
# Compound, Assay System, Data Value
data = [
    ("CCC(Oc1c2cc(C(C)(C)C)cc1Cc1cc(C(C)(C)C)cc(c1O)Cc1cc(C(C)(C)C)cc(c1OC(CC)C(=O)NCCO)Cc1cc(C(C)(C)C)cc(c1O)C2)C(=O)NCCO (stereo unspecified)", "MDA-MB-231", 79.6),
    ("CC(C)(C)c1cc2c(O)c(c1)Cc1cc(C(C)(C)C)cc(c1OC/C=C/C(=O)NCCO)Cc1cc(C(C)(C)C)cc(c1O)Cc1cc(C(C)(C)C)cc(c1OC/C=C/C(=O)NCCO)C2", "MDA-MB-231", 35),
    ("CC(C)(C)c1cc2c(O)c(c1)Cc1cc(C(C)(C)C)cc(c1OCCCC(=O)NCCCO)Cc1cc(C(C)(C)C)cc(c1O)Cc1cc(C(C)(C)C)cc(c1OCCCC(=O)NCCCO)C2", "MDA-MB-231", 29.5),
    ("CC(C)(C)c1cc2c(O)c(c1)Cc1cc(C(C)(C)C)cc(c1OC/C=C/C(=O)N(CCO)CCO)Cc1cc(C(C)(C)C)cc(c1O)Cc1cc(C(C)(C)C)cc(c1OC/C=C/C(=O)N(CCO)CCO)C2", "MDA-MB-231", 58.8),
    ("CC(C)(C)c1cc2c(O)c(c1)Cc1cc(C(C)(C)C)cc(c1OC/C=C/C(=O)NCCCO)Cc1cc(C(C)(C)C)cc(c1O)Cc1cc(C(C)(C)C)cc(c1OC/C=C/C(=O)NCCCO)C2", "MDA-MB-231", 61.5),
]

Field inhibition at 10 µM (entry "CC(C)(C)c1cc2c(O)c(c1)Cc1cc(C(C)(C)C)cc(c1OC/C=C/C(=O)NCCCCCO)Cc1cc(C(C)(C)C)cc(c1O)Cc1cc(C(C)(C)C)cc(c1OC/C=C/C(=O)NCCCCCO)C2" ) reads 39.5

Per the records, this compound ( CCC(Oc1c2cc(C(C)(C)C)cc1Cc1cc(C(C)(C)C)cc(c1O)Cc1cc(C(C)(C)C)cc(c1OC(CC)C(=O)N(CCO)CCO)Cc1cc(C(C)(C)C)cc(c1O)C2)C(=O)N(CCO)CCO (stereo unspecified) ) has inhibition at 10 µM equal to 88.2

Given item "CC(C)(C)c1cc2c(O)c(c1)Cc1cc(C(C)(C)C)cc(c1OCCCC(=O)NCCO)Cc1cc(C(C)(C)C)cc(c1O)Cc1cc(C(C)(C)C)cc(c1OCCCC(=O)NCCO)C2" , the value recorded as its inhibition at 10 µM is 25.8

Consider CC(Oc1c2cc(C(C)(C)C)cc1Cc1cc(C(C)(C)C)cc(c1O)Cc1cc(C(C)(C)C)cc(c1OC(C)C(=O)NCCCCCO)Cc1cc(C(C)(C)C)cc(c1O)C2)C(=O)NCCCCCO (stereo unspecified) . Its measured inhibition at 10 µM is 89.3

inhibition at 10 µM for "CC(C)(C)c1cc2c(O)c(c1)Cc1cc(C(C)(C)C)cc(c1OCC(=O)NCCO)Cc1cc(C(C)(C)C)cc(c1O)Cc1cc(C(C)(C)C)cc(c1OCC(=O)NCCO)C2" is 90.5

Lookup result for "CC(C)(C)c1cc2c(O)c(c1)Cc1cc(C(C)(C)C)cc(c1OCCCCCC(=O)NCCO)Cc1cc(C(C)(C)C)cc(c1O)Cc1cc(C(C)(C)C)cc(c1OCCCCCC(=O)NCCO)C2" ; measured inhibition at 10 µM: 34.3
